- TEST_TARGET: Calcium-dependent protein kinase 1 (Plasmodium falciparum (isolate 3D7))
- ASSAY_OVERVIEW: PfCDPK1 kinase inhibitors, biochemical, TCAMS library (AID 1159585);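 note: inhibitors leave more ATP so luminescence rises with inhibition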
- TEST_CONTEXT: recombinant PfCDPK1, Kinase-Glo ATP depletion luminescence
Entries with a potency or affinity are not part of this list. The source made the active and inactive calls. No cut-off is given here; in the data, nearly all actives have IC50 up to about 0.98 µM.
EXPERIMENTAL_READOUT: outcome

compound=O=C(Cn1c(CCc2cccc(F)c2F)nc(=O)c2ccccc21)N(CCN1CCCC1)Cc1ccc(-c2ccc(C(F)(F)F)cc2)cc1 experimental_readout=outcome result=inactive
compound=CCCc1cc2c3c(N)nc(N)nc3ccc2n1CC experimental_readout=outcome result=inactive
compound="CCOc1ccc(C(C)NC(=O)c2cc(Cl)ccc2OC)cc1OCC (centres undefined)" experimental_readout=outcome result=inactive
compound=CCN(CC)CCCN(CCCN(CC)CC)c1cc(C)nc(Nc2ccc(Br)cc2)n1 experimental_readout=outcome result=inactive
compound=COc1c(C2CCN(CCCCNC(=O)c3cc(-c4ccc(C#N)cc4)n[nH]3)CC2)ccc2c1CCCC2 experimental_readout=outcome result=inactive
compound="CCC(C)CN1C(=O)C(c2ccccc2)(c2ccccc2)N=C1N (centres undefined)" experimental_readout=outcome result=inactive

# batch size: 4; output outcome per entry
1. COc1ccc2ncc(F)c(NC(=O)C3CCC(NCc4cc5c(F)cccc5[nH]4)CC3)c2n1 (centres undefined)
2. COc1ccc(O)c(-c2sc(N=C(N)N)nc2-c2ccccc2)c1
3. O=[N+]([O-])c1cccc(-n2nc(NCc3ccc(Cl)cc3)nc2-c2ccc(F)c(C(F)(F)F)c2)c1
4. Cc1noc(C)c1-c1cccc(CNCc2ccc(-c3cccc(-c4nc5ccc(C(F)(F)F)cc5[nH]4)c3)cc2)c1

Response:
1. inactive
2. inactive
3. inactive
4. inactive

# batch size: 2; output outcome per entry
1. C[C@@H](N=C(Nc1ccc(-c2ccccc2)cc1)Nc1ccc(C#N)cc1O)c1ccc(Br)cc1
2. COc1ccccc1-c1csc(C(=O)NCC2CCN(Cc3ccc(C(C)(C)C)cc3)C2)c1 (centres undefined)

Response:
1: inactive; 2: inactive

# batch size: 2; output outcome per entry
1. CCn1c(-c2nonc2N)nc2c(-c3cc4ccccc4s3)ncc(C(=O)N3CCC(N)C3)c21 (centres undefined)
2. CCOc1ccc2ccccc2c1CNCCCCCCNCc1c(OCC)ccc2ccccc12

Response:
1. inactive
2. inactive

# batch size: 5; output outcome per entry
1. CC(C)(C)OC(=O)NCc1ccc(Nc2nnc(-c3cccc(C(=O)NCc4cc(C(F)(F)F)cc(C(F)(F)F)c4)c3)o2)cc1
2. CC(=NNc1nc2ccccc2s1)c1ccccn1
3. CN(c1ccc(NC(=O)Nc2cc(C(F)(F)F)ccc2F)cc1)c1ccnc(NCCN2CCOCC2)n1
4. CCCC(C)NC(=O)[C@H](Cc1ccccc1)NC(=O)c1ccc(O)c(-c2ccc(OC)cc2)c1 (some centres undefined)
5. CC(=NNC(=S)NCc1ccco1)c1ccccn1

Response:
["inactive", "inactive", "inactive", "inactive", "inactive"]

Reference for the values: PubChem BioAssay
